# study_target: MurC (UniProt C4ZRI6)
# Sequence (C4ZRI6 whole entry, looked up): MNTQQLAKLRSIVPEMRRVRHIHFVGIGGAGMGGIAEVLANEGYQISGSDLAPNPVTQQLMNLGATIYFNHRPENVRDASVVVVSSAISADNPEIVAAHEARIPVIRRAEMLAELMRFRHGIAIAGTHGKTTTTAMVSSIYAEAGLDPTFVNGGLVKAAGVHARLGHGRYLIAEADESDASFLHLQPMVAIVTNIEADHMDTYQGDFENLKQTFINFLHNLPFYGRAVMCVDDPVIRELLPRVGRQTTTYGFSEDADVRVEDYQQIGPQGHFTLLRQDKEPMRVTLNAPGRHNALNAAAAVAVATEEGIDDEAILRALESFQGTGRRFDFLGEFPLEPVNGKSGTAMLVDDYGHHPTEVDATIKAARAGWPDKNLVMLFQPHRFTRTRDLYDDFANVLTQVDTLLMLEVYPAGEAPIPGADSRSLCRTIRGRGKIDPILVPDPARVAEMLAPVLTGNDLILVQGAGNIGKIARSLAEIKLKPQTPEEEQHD
# procedure_details: relative enzymatic activity vs untreated control (fraction); higher = less inhibition
# details: 100 µM; incubation time: 2 h at 37 C
# if value of relative enzymatic activity reaches 0.9, tag criterion met; if it stays below, tag criterion not met

compound: CC[C@H]1OC(=O)[C@H](C)[C@@H](O[C@H]2C[C@@](C)(OC)[C@@H](O)[C@H](C)O2)[C@H](C)[C@@H](O[C@@H]2O[C@H](C)C[C@H](N(C)C)[C@H]2O)[C@](C)(O)C[C@@H](C)CN(C)[C@H](C)[C@@H](O)[C@]1(C)O
group_label: criterion met
--
compound: CN(C)C1C(O)=C(C(N)=O)C(=O)C2(O)C(O)=C3C(=O)c4c(O)ccc(Cl)c4C(O)C3CC12.Cl (stereo unspecified)
group_label: criterion met
--
compound: COC12C(COC(N)=O)C3=C(C(=O)C(C)=C(N)C3=O)N1CC1NC12 (stereo unspecified)
group_label: criterion not met
--
compound: CON=C(C(=O)NC1C(=O)N2C(C(=O)[O-])=C(CSc3nc(=O)c([O-])nn3C)CSC12)c1csc(N)n1.O.O.O.[Na+].[Na+] (stereo unspecified)
group_label: criterion met
--
compound: NCC[C@H](O)C(=O)N[C@@H]1C[C@H](N)[C@@H](O[C@H]2O[C@H](CN)[C@@H](O)[C@H](O)[C@H]2O)[C@H](O)[C@H]1O[C@H]1O[C@H](CO)[C@@H](O)[C@H](N)[C@H]1O
group_label: criterion met
--
compound: O=C1C=CC(=O)N1
group_label: criterion met
--
compound: CON=C(C(=O)NC1C(=O)N2C(C(=O)OCOC(=O)C(C)(C)C)=C(C=Cc3scnc3C)CSC12)c1csc(N)n1 (stereo unspecified)
group_label: criterion not met
--
compound: O=C(O)c1cn(C2CC2)c2cc(N3CCNCC3)c(F)cc2c1=O
group_label: criterion met
--
compound: COC1=C(OC)C(=O)C(CCCCCCCCCC[P+](c2ccccc2)(c2ccccc2)c2ccccc2)=C(C)C1=O
group_label: criterion not met
--
compound: CN(C)C1C(O)=C(C(N)=O)C(=O)C2(O)C(O)=C3C(=O)c4c(O)cccc4C(C)(O)C3CC12.Cl (stereo unspecified)
group_label: criterion met

###

Each entry below carries its recorded relative enzymatic activity.
# study_target: MurA (UniProt Q3YX52)
# Sequence (Q3YX52 whole entry): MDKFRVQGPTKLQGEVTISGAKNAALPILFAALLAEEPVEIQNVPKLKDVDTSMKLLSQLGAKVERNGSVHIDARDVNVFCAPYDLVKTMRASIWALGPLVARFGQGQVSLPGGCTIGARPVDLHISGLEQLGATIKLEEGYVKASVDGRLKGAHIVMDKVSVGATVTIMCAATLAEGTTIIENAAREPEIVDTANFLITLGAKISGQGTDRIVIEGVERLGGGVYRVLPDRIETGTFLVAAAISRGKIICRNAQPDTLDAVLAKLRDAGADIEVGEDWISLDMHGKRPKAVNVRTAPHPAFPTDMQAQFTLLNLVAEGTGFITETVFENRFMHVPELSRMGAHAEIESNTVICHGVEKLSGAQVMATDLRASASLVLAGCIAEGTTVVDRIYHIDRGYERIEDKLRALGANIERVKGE
# procedure_details: relative enzymatic activity vs untreated control (fraction); higher = less inhibition
# details: 100 µM; incubation time: 2 h at 37 C

molecule: Cc1cc(C(C)(C)CC(C)(C)C)ccc1OCCOCC[N+](C)(C)Cc1ccccc1.[Cl-]
relative enzymatic activity: 0.0365

molecule: CCn1nc(C(=O)O)c(=O)c2cc3c(cc21)OCO3
relative enzymatic activity: 0.762

molecule: COC(=O)N/N=C/c1c[n+]([O-])c2ccccc2[n+]1[O-]
relative enzymatic activity: 0.719

molecule: Cn1cc(-c2[nH]c3cc(NC(=O)[C@H](N)C4CCCCC4)cc4c3c2C=NNC4=O)cn1
relative enzymatic activity: 0.348

molecule: CN(C)c1cc(CNCC(C)(C)C)c(O)c2c1C[C@H]1C[C@H]3[C@H](N(C)C)C(=O)[C@H](C(N)=O)C(=O)[C@@]3(O)C(=O)[C@@H]1C2=O
relative enzymatic activity: 0.133

molecule: CCOC(=O)OC(C)OC(=O)C1N2C(=O)C(NC(=O)C(N)c3ccccc3)C2SC1(C)C.Cl (stereo not drawn)
relative enzymatic activity: 0.82

molecule: CO/N=C1\CN(c2nc3c(cc2F)c(=O)c(C(=O)O)cn3C2CC2)C[C@@H]1CN
relative enzymatic activity: 0.631

molecule: CCCC[P+](CCCC)(CCCC)Cc1ccc(NC(=O)[C@H](Cc2ccc3ccccc3c2)N/C(=N/C2CCCCC2)NC2CCCCC2)cc1
relative enzymatic activity: 0.0355

molecule: CCCCCCCCCCCCC[N+](C)(C)Cc1ccccc1.O.[Cl-]
relative enzymatic activity: 0.051

molecule: O=C(NC(CO)C(O)c1ccc([N+](=O)[O-])cc1)C(Cl)Cl (stereo not drawn)
relative enzymatic activity: 0.8

molecule: CNC1C(OC2C(OC3C(O)C(O)C(NC(=N)N)C(O)C3NC(=N)N)OC(C)C2(O)CO)OC(CO)C(O)C1O.O=S(=O)(O)O (stereo not drawn)
relative enzymatic activity: 0.635

molecule: Cc1nnc(SCC2=C(C(=O)[O-])N3C(=O)C(NC(=O)Cn4cnnn4)C3SC2)s1.[Na+] (stereo not drawn)
relative enzymatic activity: 0.255

molecule: COc1ccc(Cc2cnc(N)nc2N)cc1OC
relative enzymatic activity: 0.74

molecule: Oc1c(Cl)cc(Cl)c2cccnc12
relative enzymatic activity: 0.88

molecule: Cc1scc2c1N(C(=O)CN1CCN(C)CC1)c1ccccc1NC2=O.Cl
relative enzymatic activity: 0.703

molecule: C=CC1=C(C(=O)O)N2C(=O)[C@@H](NC(=O)/C(=N/O)c3csc(N)n3)[C@H]2SC1
relative enzymatic activity: 0.119

molecule: COC1(NC(=O)C2SC(=C(C(N)=O)C(=O)O)S2)C(=O)N2C(C(=O)O)=C(CSc3nnnn3C)CSC21 (stereo not drawn)
relative enzymatic activity: 0.0627

molecule: CC(C)[C@@H](CC[C@@H](C)[C@H]1CC[C@H]2[C@@H]3[C@H](O)C[C@H]4C[C@@H](NCCCNCCCCNCCCN)CC[C@]4(C)[C@H]3CC[C@]12C)OS(=O)(=O)O
relative enzymatic activity: 0.187
